Item-by-item account of inhibition at 40 min, 10 µM
ASSAY_SYSTEM: GSK-3beta (H350L mutant) (Homo sapiens, UniProt P49841, H350L)
Sequence (P49841 whole entry, looked up, stated change not applied): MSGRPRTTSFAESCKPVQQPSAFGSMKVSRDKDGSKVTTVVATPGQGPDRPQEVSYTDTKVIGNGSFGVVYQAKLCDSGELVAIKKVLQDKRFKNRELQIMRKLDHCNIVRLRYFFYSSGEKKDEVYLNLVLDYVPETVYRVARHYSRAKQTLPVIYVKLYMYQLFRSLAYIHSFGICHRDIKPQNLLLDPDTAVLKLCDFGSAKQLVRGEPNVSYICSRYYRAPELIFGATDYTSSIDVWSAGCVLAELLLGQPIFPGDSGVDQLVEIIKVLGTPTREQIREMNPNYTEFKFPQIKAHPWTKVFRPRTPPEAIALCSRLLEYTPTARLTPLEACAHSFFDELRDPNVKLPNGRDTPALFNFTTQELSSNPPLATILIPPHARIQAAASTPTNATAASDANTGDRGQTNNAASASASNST
TEST_SUMMARY: Inhibition of human GSK-3beta H350L mutant (2 to end residues) at 10 uM using phospho GS2 peptide as substrate after 40 mins by [gamma-33ATP] radiometric assay relative to control
EXPERIMENTAL_CONDITIONS: human GSK-3beta H350L mutant enzyme (residues 2 to end), probe phospho GS2 peptide
Expressed in %, but write only the number.

Completed entries (count: 2):
structure_as_smiles=CC(=O)/N=C1/NC(=O)/C(=C\c2ccc(-c3ccc(C(=O)O)cc3)o2)S1 experimental_readout="inhibition at 40 min, 10 µM" numeric_readout=72
structure_as_smiles=N=C1NC(=O)/C(=C\c2ccc(-c3cccc(C(=O)O)c3)o2)S1 experimental_readout="inhibition at 40 min, 10 µM" numeric_readout=93

Then this molecule:
So what's the measured inhibition at 40 min, 10 µM for this one? O=C1NC(=S)N/C1=C/c1ccc(-c2ccc(Cl)c(Cl)c2)o1
59
